- target-of-assay: Neu5Ac(a2-3)Gal(b1-3)]Neu5Ac(a2-3)Gal(b1-4)]GlcNAc
- protocol-notes: glycan array binding signal (z-score within array); higher = stronger binding
- reported-conditions: glycan notation: IUPAC condensed, linker removed
This excerpt belongs to a sample that is enriched for the strongest signals.
measurement-name: glycan array binding signal (z-score)
Respond with the number and no other words.

Entry SP15308B-bot-339-22-339 (Bacteroides ovatus) (protein) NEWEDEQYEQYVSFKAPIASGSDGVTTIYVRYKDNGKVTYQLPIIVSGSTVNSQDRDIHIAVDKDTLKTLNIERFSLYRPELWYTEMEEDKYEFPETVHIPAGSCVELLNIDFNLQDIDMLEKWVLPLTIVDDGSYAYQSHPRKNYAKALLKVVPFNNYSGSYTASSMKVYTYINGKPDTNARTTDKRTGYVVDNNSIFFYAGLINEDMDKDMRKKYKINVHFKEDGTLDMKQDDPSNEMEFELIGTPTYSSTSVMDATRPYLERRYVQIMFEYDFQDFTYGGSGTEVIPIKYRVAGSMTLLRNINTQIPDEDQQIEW has what glycan array binding signal (z-score)? -0.519
